Measured ED50 by item
tested on: Mus musculus; assay: Anticonvulsant activity in ip dosed Swiss albino mouse assessed as reduction of subcutaneous pentylenetetrazole-induced seizure; assay type: functional
ENDPOINT NAME: ED50

{"COMPOUND": "CCOC(=O)C1C(c2cc3ccccc3[nH]2)NC(c2cc3ccccc3[nH]2)C(C(=O)OCC)S1(=O)=O (stereo unspecified)", "ENDPOINT NAME": "ED50", "ENDPOINT VALUE": "56.8 mg/kg"}
{"COMPOUND": "CCOC(=O)C1C(c2ccc3c(c2)OCO3)NC(c2ccc3c(c2)OCO3)C(C(=O)OCC)S1(=O)=O (stereo unspecified)", "ENDPOINT NAME": "ED50", "ENDPOINT VALUE": "220 mg/kg"}
{"COMPOUND": "NC(=O)N1c2ccccc2C=Cc2ccccc21 [CARBAMAZEPINE]", "ENDPOINT NAME": "ED50", "ENDPOINT VALUE": "> 100 mg/kg"}
{"COMPOUND": "O=C1NC(=O)C(c2ccccc2)(c2ccccc2)N1", "ENDPOINT NAME": "ED50", "ENDPOINT VALUE": "> 300 mg/kg"}
{"COMPOUND": "CCOC(=O)C1C(c2ccccc2)NC(c2ccccc2)C(C(=O)OCC)S1(=O)=O (stereo unspecified)", "ENDPOINT NAME": "ED50", "ENDPOINT VALUE": "58.6 mg/kg"}
{"COMPOUND": "CCOC(=O)C1C(c2ccc(C)cc2)NC(c2ccc(C)cc2)C(C(=O)OCC)S1(=O)=O (stereo unspecified)", "ENDPOINT NAME": "ED50", "ENDPOINT VALUE": "90.2 mg/kg"}
{"COMPOUND": "CCOC(=O)C1C(c2cc3ccccc3nc2Cl)NC(c2cc3ccccc3nc2Cl)C(C(=O)OCC)S1(=O)=O (stereo unspecified)", "ENDPOINT NAME": "ED50", "ENDPOINT VALUE": "62.7 mg/kg"}
{"COMPOUND": "CCC1(c2ccccc2)C(=O)NC(=O)NC1=O", "ENDPOINT NAME": "ED50", "ENDPOINT VALUE": "13.2 mg/kg"}
{"COMPOUND": "CCOC(=O)C1C(c2ccc([N+](=O)[O-])cc2)NC(c2ccc([N+](=O)[O-])cc2)C(C(=O)OCC)S1(=O)=O (stereo unspecified)", "ENDPOINT NAME": "ED50", "ENDPOINT VALUE": "73.2 mg/kg"}
{"COMPOUND": "CCCC(CCC)C(=O)O", "ENDPOINT NAME": "ED50", "ENDPOINT VALUE": "149 mg/kg"}
{"COMPOUND": "CCOC(=O)C1C(c2ccc(Cl)cc2)NC(c2ccc(Cl)cc2)C(C(=O)OCC)S1(=O)=O (stereo unspecified)", "ENDPOINT NAME": "ED50", "ENDPOINT VALUE": "50.5 mg/kg"}
